Data credit: PubChem BioAssay

Record form. Attribute: viability. Fill in for each entry.
test: growth inhibitors of H69AR lung tumor, primary screen, human, duplicate replicates (AID 580); conditions: H69AR lung tumor cells viability, ATP luminescence, 72 h; at 10 µM; active compounds read low;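 also: 100% = mean luminescence of untreated wells and 0% = no signal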
Active and inactive are the calls of the source.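 The calls were made as follows: active = viability at or under a set limit in both replicates, limit being median viability minus 3 SD (cut at about 48% in these data, passing the limit was not always enough); inconclusive = at or under the limit in just one replicate; inactive = at or above the limit in both replicates.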

Form: molecule = `CCOCC(=O)Nc1c(C(=O)Nc2ccc(OC)cc2OC)oc2ccccc12` ; viability = 48% (active)

Form: molecule = `O=C(COc1ccc(S(=O)(=O)N2CCCC2)cc1Cl)NC1CC1` ; viability = 101% (inactive)

Form: molecule = CC1(C)NC(=O)N(CC(O)CN2CCCC2)C1=O (centres undefined) ; viability = 97.2% (inactive)

Form: molecule = `Cc1occc1-c1nc(-c2ccncc2)no1` ; viability = 95.4% (inactive)

Form: molecule = O=C(NCC1CCCO1)C1CC(c2ccc(Cl)c(Cl)c2)=NO1 (centres undefined) ; viability = 104% (inactive)

Form: molecule = `COc1cccc2cc(C(=O)N3CCc4ccccc43)c(=O)oc12` ; viability = 94.2% (inactive)

Form: molecule = `CCOc1ccc(NC(=O)c2ccncc2)cc1` ; viability = 99.9% (inactive)

Form: molecule = `c1cc2c(cc1Nc1nc(-c3ccc4c(c3)OCO4)cs1)OCCO2` ; viability = 90.5% (inactive)

Form: molecule = `CC1(C)NC(=O)N(CCCOc2ccc(Br)cc2Cl)C1=O` ; viability = 89.7% (inactive)

Form: molecule = `COc1ccc(S(=O)(=O)NCc2ccc(C(=O)O)cc2)cc1` ; viability = 95.8% (inactive)

Form: molecule = CCOC(=O)C1C2C=CC3(CN(Cc4ccco4)C(=O)C13)O2 (centres undefined) ; viability = 96.5% (inactive)

Form: molecule = O=C(Nc1ccc(S(=O)(=O)Nc2ccc(Cl)cc2)cc1)C1CCCO1 (centres undefined) ; viability = 90.2% (inactive)

Form: molecule = `Cc1ccc(S(=O)(=O)N2CCN(S(=O)(=O)N(C)C)CC2)cc1` ; viability = 103% (inactive)

Form: molecule = `NC(=O)N1c2ccccc2C=Cc2ccccc21` ; viability = 107% (inactive)

Form: molecule = Cc1c(NC(=O)C(C)OC(=O)c2cc3c4ccccc4n(C)c3s2)c(=O)n(-c2ccccc2)n1C (centres undefined) ; viability = 78.4% (inactive)

Form: molecule = `O=S(=O)(c1cccs1)N1CCN(Cc2nc3ccccc3s2)CC1` ; viability = 84.9% (inactive)

Form: molecule = COc1ccc2c(c1)C1(Nc3ccccc3-c3nc4ccccc4n31)C(=O)N2 (centres undefined) ; viability = 82.3% (inactive)

Form: molecule = `Cc1cc(C(=O)Nc2cc(C)n(Cc3ccc(Cl)cc3)n2)no1` ; viability = 94.5% (inactive)

Form: molecule = CCC1CCc2c(sc3ncnc(N4CCOCC4)c23)C1 (centres undefined) ; viability = 89.3% (inactive)

Form: molecule = `CCCCCC(=O)N(CN1C(=O)CCC1=O)c1ccccc1` ; viability = 90.9% (inactive)

Form: molecule = `O=C(NCc1ccccn1)c1cc(-n2cnnc2)ccc1Cl` ; viability = 101% (inactive)

Form: molecule = `CCOC(=O)CCC(=O)c1c(C)oc2ccc(OC)cc12` ; viability = 88.4% (inactive)

Form: molecule = `CCn1c(CNc2ccc(C)cc2)nnc1SCC(=O)NCc1ccccc1` ; viability = 86.6% (inactive)

Form: molecule = `COc1ccc(Cn2c(N)c(C#N)c3nc4ccccc4nc32)cc1OC` ; viability = 99.5% (inactive)
